PROTOCOL_DESCRIPTION: yeast display, Sf9 membrane polyspecificity reagent, FACS + sequencing; frameworks hold sequencing errors
READOUT_TYPE: polyreactivity (PSR sort gate)

>>> observed_measurement("QVQLVESGGGLVQAGGSLRLSCAASGSTFWLNAMGWYRQAPGKERELVAAITGLGGSTYYADSVKGRFTISRDTAKNTVYLQMNSLKPEDTAVYYCAAGAYRRNKSDYYYWGQGTEVTVSS")
"low polyreactivity"
>>> observed_measurement("QVQLVESGGGLVQAGGSLRLSCAASGYTFNKNTMGWYRQAPGKERELVAAISSSGGRTYYADSVKGRFTISRDNAKNTVYLQMNSLKPEDTAVYYCAARGYFKIHEYDYWGQGTQVTVSS")
"high polyreactivity"
>>> observed_measurement("QVQLVESGGGLVQARGSLRLSCAASGNTFVTNAIGWYRQAPGKVRELVAAINSSGGSTYYADSVKGRFTISRDNAKNTVYLQMNSLKPEDTAVYYCAADPLGITSGYGYWGQGTQVNVSS")
"low polyreactivity"
>>> observed_measurement("QVQLVESGGGLVQAGGSLRLSCAASGSIFTPYAMGWYRQAPGKERELVAAISSDGSTYYADSVKGRFTISRDNAKNTVYLQMNSLKTEDTAVYYCAAEYSWYYYYLFVGEYDYWGQGTQVTVSS")
"low polyreactivity"
>>> observed_measurement("QVQLVESGGGLVQAGGSLRLSCAASAITFFNNAMGWYRPATGKERELVADITYSGSTYYADSVKGRFTISRDNAQNSVYLQMNSLKPEDTAVYYCSAGHAYDYFVYYPDDYWGQGTQVTVSS")
"low polyreactivity"

input: GET /values?readout=polyreactivity (PSR sort gate)&item= `QVQLVESGGGLVQAGGSLRLSCAASGSTFRYYAMGWYRQEPGKERELVASITRGASTNYADSVKGRFTISRDNAKNTVYIQMNSLKPEDTAVYYCAADNYWHTFGGTDLRDDYWGQGTQVTVSS`
output: low polyreactivity

input: Recorded polyreactivity (PSR sort gate) for `QVQHVESRGGIVQAGGSLRLSCAASGFILYFNAMGWYRQAPGKERELVAAITSDGGSTYYADSVKGRFTISRDNAKNTVYLQMNSLKPEDTAVYYCAADASTWYTEEYWGQGTQVTVSS` , please?
output: low polyreactivity

###

PROTOCOL_DESCRIPTION: yeast display, Sf9 membrane polyspecificity reagent, FACS + sequencing; frameworks hold sequencing errors
READOUT_TYPE: polyreactivity (PSR sort gate)

>>> observed_measurement("QVQLVESGGGLVQAGGSLRLSCAASGSIFTPNAMGWYRQAPGKERELVAAISSSSDRTYYADSVKGRFTISRDNAKNTVYLQMNSLKPEDTAVYYCAAYAQKRYYWGQGTQVTVSS")
"high polyreactivity"
>>> observed_measurement("QVQLVESGGGLVQAGGSLRYICAASGFTFRPKVMGWYRQAHGKERELVAAISGSGGSTYYADSVKGRFTISRDNAKNTVYLQMNSLKPEDTAVYYSKDFPAFYDFGYWGQGTQVTVSS")
"high polyreactivity"
>>> observed_measurement("QVQLVESGGGLVQAGGSLPLSCAASGSIFQLNAMGWYRQAPGKERELVGSIRDGGSTSYADSVKGRFTISRDNAKNTVYLQMNSLKPADTAVYYCADLKLYIYDYWGQGTQVTVSS")
"high polyreactivity"
>>> observed_measurement("QVQLVESGGGLVQAGGSLRLSCAAYYAMGWYRQAPVKERELVAAISSTGRTNYADSVKGRFTISRDNAKNTVYLQMNSLKPEDTAVYYCAAEWHYIYAYDYWGQGTQVTVSS")
"low polyreactivity"
>>> observed_measurement("HVQLQESGGGLVQAGGDLRLSCAASGNIFRDYIMGWYRQAPGKEREFVAGIDRGANTNYADSVKGRFTISRDNAKNTVYLQMNSLIPEDTAVYYCAVHTAIVPDFIYWGQGTQVTVSS")
"low polyreactivity"
>>> observed_measurement("QDQLVESGGGLVQAGGSLRLSCAATGSTYYGYVMGWYRKAPGKETELVAAINLRGDRTYYADSVKGRFTISRDNAKNTVYLQMNSLKPEESSVYYCAARVMFYNSIKRYSWGQGTQVTGSS")
"high polyreactivity"
>>> observed_measurement("QVQLVESGGGLVQAGGSLRLSCAASGLIFYRNAMGWYRQAPGKERELVAAIRFSTGSTYYADSVKGRFTISRDNAKKTVYLQMNSLKPEDTAVYYCAADRRYYWYNYWGQGTQVTVSS")
"high polyreactivity"
>>> observed_measurement("QVQLVESGGGLVQAGGSLRLSCAASGFIFFVNAMGWYRQAPGKEREFVATITGSGGSTYYADSVKGRFTISRDNAKNTVYLQMYSLKPEDTAVYYCNAETYIDLRGKFPVEYDYWGQGTQVTVSS")
"low polyreactivity"

input: Entry under review: `QDQLVESGGGLVQAGGSLRLSCAASGNIFDYYAMGWYRQAPGKERELVATITWSSGRTYYADSVKGRFTISRDNAKNTVYLQMNSLKTEDTAVYYCNTRSYTRYDYWGQGTQVTVSS` . Reported polyreactivity (PSR sort gate)?
output: low polyreactivity

input: Give its polyreactivity (PSR sort gate) value. Item: `QVQLVESGGGLVQAGGSLRLSCAASGFTFTHYAMGWYREAPGKERELVAAISTSVGSKYYADSVKGRFTISRDNAKNTVYVQMNSLKPEDTAVYYFAARRDGWVQWGNYYWGQVTQVTVSS`
output: low polyreactivity

input: // returns reported polyreactivity (PSR sort gate) for input `QVQLVESGGGLVQAGGSLRLSCAASGRIFPSYAMGWYRQAPGKERELVAAISYSGASTYYADSVKGRFTFSRDNAKNTVYLQMNSLKPEDTAVYYCNAESGPKYYWGYAGTFDYWGQGTQVTVSS`
output: low polyreactivity
